Reported pIC50 for target or system BRD3 (His-Brd3(20-477)) (Homo sapiens (Human), UniProt Q15059), by entry.
pIC50: −log10 of the molar value.

Consider the following illustrative entries.
| Compound | Result |
| --- | --- |
| COc1ncccc1-c1nc2c(n1C(C)C)[C@@H](c1ccc(Cl)cc1)N(c1cc(C)c3nnn(C)c3c1)C2=O | > 7.96 |
| Cc1cc(N2C(=O)c3nc(C4=CCOCC4)n(C(C)C)c3[C@H]2c2ccc(Cl)cc2)nc2c1nnn2C | > 7.96 |

Okay, now this compound:
API: value(readout=pIC50, system=BRD3 (His-Brd3(20-477)) (Homo sapiens (Human), UniProt Q15059)) for record Cc1cc(N2C(=O)c3nc(C4CCOCC4)n(C(C)C)c3C2c2ccc(Cl)cc2)cn2c(C)nnc12 (stereo not drawn)
> 7.96

FYI, the data here is from patent US9890166B2.
